The values you see were collected from PubChem BioAssay (NCI).

Tested on: HCC-2998 colon
Test: NCI-60 one-dose screen, 48 h (100 = growth as untreated, 0 = no growth, -100 = all killed)
Conditions: 10 µM
The panel holds about 83,000 compounds, 20% with a hit somewhere; the sample as a whole holds those more often.
growth overview

[
  {
    "compound": "COc1ccc(S(=O)(=O)N(C(C)=O)c2ccccc2/C=C/c2cc[n+]([O-])cc2)cc1",
    "units_text": "%",
    "growth": 8.66
  },
  {
    "compound": "CN(C)CCOC(=O)Nc1nc2ccc(Sc3ccccc3)cc2[nH]1",
    "units_text": "%",
    "growth": 61.3
  },
  {
    "compound": "CC[C@@H]1C(=O)N(C)c2cnc(Nc3ccc(C(=O)NC4CCN(C)CC4)cc3OC)nc2N1C1CCCC1",
    "units_text": "%",
    "growth": -28.6
  },
  {
    "compound": "COC(=O)[C@H](Cc1ccc(O)cc1)NC(=O)[C@@H](OC)[C@@H]1Cc2cc3cc(OC4CC(OC5CC(O)C(O)C(C)O5)C(O)C(C)O4)c(C)c(O)c3c(O)c2C(=O)[C@H]1OC1CC(OC2CC(OC3CC(C)(O)C(O)C(C)O3)C(O)C(C)O2)C(O)C(C)O1 (some centres not stated)",
    "units_text": "%",
    "growth": -67
  },
  {
    "compound": "CN1C/C=C\\CCOc2cccc(c2)-c2ccnc(n2)Nc2cccc(c2)C1",
    "units_text": "%",
    "growth": -40
  },
  {
    "compound": "CNC(=O)c1cc(Oc2ccc(NC(=O)Nc3ccc(Cl)c(C(F)(F)F)c3)c(F)c2)ccn1",
    "units_text": "%",
    "growth": -80.8
  },
  {
    "compound": "C[C@@H](Oc1cc(-n2cnc3ccc(CN4CCN(C)CC4)cc32)sc1C(N)=O)c1ccccc1C(F)(F)F",
    "units_text": "%",
    "growth": 14.1
  },
  {
    "compound": "Cc1c(N)ccc(-c2ccc(N)c(C)c2S(=O)(=O)O)c1S(=O)(=O)O",
    "units_text": "%",
    "growth": 102
  },
  {
    "compound": "Cn1cnc(-c2cc3nccc(Oc4ccc(NC(=S)NC(=O)Cc5ccccc5)cc4F)c3s2)c1",
    "units_text": "%",
    "growth": 104
  },
  {
    "compound": "CCN1CCN(CCCN(C[C@H]2Cc3ccccc3CN2)[C@H]2CCCc3cccnc32)CC1",
    "units_text": "%",
    "growth": 102
  },
  {
    "compound": "CCCCOc1nc2cc(Cl)ccc2cc1/C=C/c1cc(/C=C/c2cc3ccc(Cl)cc3nc2OCCCC)n(-c2ccccc2)n1",
    "units_text": "%",
    "growth": 102
  },
  {
    "compound": "COc1cc(-c2cc(-c3ccc(Nc4ccnc5cc(Cl)ccc45)cc3)nc(N3CCOCC3)n2)cc(OC)c1OC",
    "units_text": "%",
    "growth": 18.7
  }
]

---

System: NCI-H460 lung
Assay: NCI-60 one-dose screen, 48 h (100 = growth as untreated, 0 = no growth, -100 = all killed)
Details: 10 µM unless noted
Compounds without any hit were thinned out: in the full panel of roughly 83,000, 20% have a hit.
Mark Criterion not met for growth values under 50%, and Criterion met for everything at or above.

[
  {
    "compound": "CC(C)[C@@H]1CC[C@@H]2[C@@H]1[C@H](OC(=O)/C=C/c1ccccc1)[C@]1(C(C)C)C[C@@H](OC(=O)CO)[C@@]2(C)O1",
    "label": "Criterion met"
  },
  {
    "compound": "O=C1CC(c2ccc(Cl)cc2)c2ncn(-c3cccc(Cl)c3)c2N1 (stereo not given)",
    "label": "Criterion not met"
  },
  {
    "compound": "O=S1(=O)OC(c2cc(Cl)c(O)c(Br)c2)(c2cc(Cl)c(O)c(Br)c2)c2ccccc21",
    "label": "Criterion met"
  },
  {
    "compound": "CN1CCC(COc2cnc(-c3cccc(Cn4nc(-c5cccc(C#N)c5)ccc4=O)c3)nc2)CC1",
    "label": "Criterion met"
  },
  {
    "compound": "COC(=O)[C@]12CC[C@@H](C)[C@H](C)[C@@H]1C1=CC[C@@H]3[C@@]4(C)C(C#N)=CC(C)=C4CC[C@@]3(C)[C@]1(C)CC2",
    "label": "Criterion met"
  },
  {
    "compound": "COc1cc2c(cc1OCCCN1Cc3ccc(OCCCCC(=O)N4CCC(CCN5CCCC5)CC4)cc3C1)N=C(N)C21CCCC1",
    "label": "Criterion met"
  },
  {
    "compound": "CCCCCCCC(=O)SCC/C=C/[C@@H]1CC(=O)NCc2cccc(n2)C2=N[C@@](C)(CS2)C(=O)N[C@@H](C(C)C)C(=O)O1",
    "label": "Criterion not met"
  },
  {
    "compound": "COc1cc(NC2CCC(=O)N2c2ccc(Cl)cc2Cl)cc(OC)c1OC (stereo not given)",
    "label": "Criterion met"
  },
  {
    "compound": "ClCc1ccc(-c2ccc(Cn3cnc4nc(Cl)nc(Cl)c43)cc2)cc1",
    "label": "Criterion not met"
  },
  {
    "compound": "O=C(COc1cccc(/C=C2\\Cc3ccc(Cl)cc3C2=O)c1)Nc1nccs1",
    "label": "Criterion met"
  }
]
